Consider the following variants; for each one, report its protein stability index.
B1: RSPH3 (parent)
chain: MTVKPAKAASLARNLAKRRRTYLG

Variants of: B1
Test: protein stability index of a GFP-peptide fusion (GPS, HEK-293T) (PSI 1-6); higher = more stable;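 further: lentivirally expressed fusions sorted by FACS into six bins by GFP to DsRed ratio, PSI derived from sequencing read proportions per bin multiplied by bin number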
Conditions: c terminus: a fixed tail appended

Record summary for T21M : reported protein stability index = 2.7

Value of measured protein stability index for the entry K7I : 2.46

# protein stability index of P5H = 2.91

Entry under test: R19F . Its protein stability index was 1.23

Data point: L23A ; protein stability index = 3.98

The value of protein stability index measured for the variant R13F turned out to be 2.29

What the record says about L23H : protein stability index is 3.9

For this variant ( K4L ), measured protein stability index is 2.13

Notebook: K7T , protein stability index read as 3.06

// protein stability index value for K4C : 2.8

Short answer for K4W : protein stability index was 2.25

Values were extracted from the supplement of paper PMC10567573.
